target: human ether-à-go-go-related gene (hERG) potassium channel (human, UniProt Q12809); test: primary screen, population patch clamp on CHO cells stably expressing hERG; higher = less effect of the substance;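 note: peak tail current of the secondary pulse compared with the same well before compound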
Sequence (Q12809 whole entry, looked up): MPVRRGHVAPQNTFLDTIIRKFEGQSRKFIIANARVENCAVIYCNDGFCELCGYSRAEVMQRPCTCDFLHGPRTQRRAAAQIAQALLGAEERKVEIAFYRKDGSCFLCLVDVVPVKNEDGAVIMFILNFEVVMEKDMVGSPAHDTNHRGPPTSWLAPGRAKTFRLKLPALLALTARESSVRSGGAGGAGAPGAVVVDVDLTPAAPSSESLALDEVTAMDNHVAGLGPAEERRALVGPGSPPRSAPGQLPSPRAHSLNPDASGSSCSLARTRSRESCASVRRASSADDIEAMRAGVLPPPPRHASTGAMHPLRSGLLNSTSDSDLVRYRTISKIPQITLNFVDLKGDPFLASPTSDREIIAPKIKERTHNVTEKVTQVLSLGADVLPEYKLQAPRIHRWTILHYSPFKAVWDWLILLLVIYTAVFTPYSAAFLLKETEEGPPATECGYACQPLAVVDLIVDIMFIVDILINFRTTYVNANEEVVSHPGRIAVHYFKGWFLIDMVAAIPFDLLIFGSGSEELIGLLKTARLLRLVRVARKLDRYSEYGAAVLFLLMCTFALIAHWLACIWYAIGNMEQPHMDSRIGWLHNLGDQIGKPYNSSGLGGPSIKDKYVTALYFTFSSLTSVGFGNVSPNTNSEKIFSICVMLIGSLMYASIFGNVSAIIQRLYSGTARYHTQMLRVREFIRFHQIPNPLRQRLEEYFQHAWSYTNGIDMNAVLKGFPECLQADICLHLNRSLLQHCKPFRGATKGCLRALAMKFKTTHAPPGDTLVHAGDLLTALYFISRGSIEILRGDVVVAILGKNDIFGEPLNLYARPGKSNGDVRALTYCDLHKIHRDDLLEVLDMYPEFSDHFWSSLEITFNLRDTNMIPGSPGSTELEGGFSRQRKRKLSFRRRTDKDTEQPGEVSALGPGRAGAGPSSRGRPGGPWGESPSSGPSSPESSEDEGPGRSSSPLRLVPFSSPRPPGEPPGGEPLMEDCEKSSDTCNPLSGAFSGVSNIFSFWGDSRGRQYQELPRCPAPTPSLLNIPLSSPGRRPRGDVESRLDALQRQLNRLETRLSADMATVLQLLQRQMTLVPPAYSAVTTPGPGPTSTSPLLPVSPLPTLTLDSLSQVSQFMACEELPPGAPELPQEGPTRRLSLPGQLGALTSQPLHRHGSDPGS
The whole screen tested about 310,000 compounds, of which about 14,000 (4.5%) showed an effect of 50% or more. The effect is printed as a negative number. For the sample, strong results were picked, then their nearest neighbours and some compounds at random.
Listing of entries alongside the reported hERG current change (%, negative = inhibition) at 10uM.
Number in %, nothing else.

For orientation, consider the following solved cases.
| compound | resultValue |
| --- | --- |
| CC(C)CN(C(=O)COC(=O)c1ccc2c(c1)NC(=O)CS2)C1CCS(=O)(=O)C1 (stereo not shown) | 13.1 |
| O=C(NCCc1ccc(Cl)cc1)C1CCN(S(=O)(=O)c2ccc(-n3cnnn3)cc2)CC1 | -69 |
| CC(C)CNC(=O)C1CCN(S(=O)(=O)c2ccc(-n3cnnn3)cc2)CC1 | -55.3 |
| CC(C)(C)OC(=O)CNC(=O)c1nc[nH]c1C(=O)N1CC[NH2+]CC1.[Cl-] | 4.07 |

COc1cc(CN2CCN(c3ccccc3F)CC2)cc(OC)c1O has a reported hERG current change (%, negative = inhibition) at 10uM of -26.4

CCC(=O)N(C(=O)CC)N1CCN(c2ccncc2S(=O)(=O)N2CCCCC2)CC1 has a reported hERG current change (%, negative = inhibition) at 10uM of -52.5

CCOc1cc(S(=O)(=O)NCc2ccccc2)c(OCC)cc1-n1cnnn1 has a reported hERG current change (%, negative = inhibition) at 10uM of -14.3

CC(=O)N1CCc2c(sc(NC(=O)CCS(=O)(=O)c3ccc(C)cc3)c2C(N)=O)C1 has a reported hERG current change (%, negative = inhibition) at 10uM of 2.54

---

target: human ether-à-go-go-related gene (hERG) potassium channel (human, UniProt Q12809); test: primary screen, population patch clamp on CHO cells stably expressing hERG; higher = less effect of the substance;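 note: peak tail current of the secondary pulse compared with the same well before compound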
Out of some 310,000 compounds screened, about 14,000 (4.5%) showed an effect of 50% or more. The effect is printed as a negative number. The entries come from a sample that favours strong results as a whole.
Listing of entries alongside the reported hERG current change (%, negative = inhibition) at 10uM.
Number in %, nothing else.

| compound | resultValue |
| --- | --- |
| COc1cccc(CN(CC(=O)NCc2ccco2)C(=O)CNS(=O)(=O)c2ccccc2)c1 | -53.1 |

COc1ccc(CN(CC(=O)NCc2ccco2)C(=O)CNS(=O)(=O)c2ccc(C)cc2)cc1 has a reported hERG current change (%, negative = inhibition) at 10uM of -63.3

---

Listing of entries alongside the reported hERG current change (%, negative = inhibition) at 10uM.
Biological target: human ether-à-go-go-related gene (hERG) potassium channel (human, UniProt Q12809);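 note: peak tail current of the secondary pulse compared with the same well before compound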
Experiment: primary screen, population patch clamp on CHO cells stably expressing hERG; higher = less effect of the substance
Description: Briefly, Chinese hamster ovary (CHO) cells stably expressing the hERG channel were dislodged from tissue culture flasks and dispensed into PPC plates. […] During the recording, background leak currents were estimated by a 100 ms step to -80 mV from an initial holding potential of -70 mV and subtracted from the subsequent current measurement. The campaign was conducted in two phases using slight differences in recording protocol. […]
The whole screen tested about 310,000 compounds, of which about 14,000 (4.5%) showed an effect of 50% or more. The effect is printed as a negative number. The sample holds strong results, similar compounds and a random draw of the others, so the mix is not that of the screen.
Number in %, nothing else.

| compound | scaleUnit | resultValue |
| --- | --- | --- |
| COc1ccccc1OCc1nc(Cc2ccc(Cl)cc2)no1 | % | -31.4 |
| CCOc1c2ccc(C(=O)NCc3ccc4c(c3)OCO4)cc2nn1C | % | 17.6 |
| C/C(=N\NC(=O)c1cccc(Br)c1)c1ccc(Br)cc1 | % | 16 |
| CCOc1ccc(-c2c[n+]3c(n2-c2ccccc2)CCCCC3)cc1.[Br-] | % | -64.7 |

CCNC(=S)N1CCN(CCN=CC2=C(O)CC(c3ccco3)CC2=O)CC1 (stereo not shown) has a reported hERG current change (%, negative = inhibition) at 10uM of 0.166

Cc1cccc(-n2ncc3c2CCCC3NC(=O)Cc2c(C)noc2C)c1C (stereo not shown) has a reported hERG current change (%, negative = inhibition) at 10uM of 15.9

CCOc1ccc(-n2c(-c3ccccc3)c[nH]c2=S)cc1 has a reported hERG current change (%, negative = inhibition) at 10uM of 20.6

Cn1c(-c2ccccc2)c[n+]2c1CCCCC2.[Br-] has a reported hERG current change (%, negative = inhibition) at 10uM of -0.399

CCc1ccc(CN2CCCC(C(=O)c3sccc3C)C2)o1 (stereo not shown) has a reported hERG current change (%, negative = inhibition) at 10uM of 2.99

O=C1CC(c2ccco2)CC(O)=C1C=NCCN1CCN(C(=S)Nc2ccccc2)CC1 (stereo not shown) has a reported hERG current change (%, negative = inhibition) at 10uM of -54.1

O=C(NCc1cccs1)[C@@H]1CSC2c3ccccc3C(=O)N21 (stereo partly shown) has a reported hERG current change (%, negative = inhibition) at 10uM of 8.92

S=C(CN1CCCC1=S)N1CCOCC1 has a reported hERG current change (%, negative = inhibition) at 10uM of 17.3

FC(F)Oc1ccc(-c2c[n+]3c(n2-c2ccccc2)CCCCC3)cc1 has a reported hERG current change (%, negative = inhibition) at 10uM of -70.3
